test system: COLO320DM cells; assay: COLO320DM proliferation assay; type: cell-based, human; settings: read-out: COLO320DM Proliferation Abs IC50
pIC50: −log10 of the molar value.

compound	pIC50
CC(=O)N1CCC[C@]12CC=CCCCC1(CCCC=CCCCOC(=O)N3CC[C@@]4(C3)NC(=O)[C@H](CCCCNC(=O)CC[C@@H](C(=O)N[C@@H](C)C(N)=O)NC(=O)[C@H](Cc3csc5ccccc35)NC(=O)[C@H](Cc3cccnc3)NC4=O)NC(=O)[C@H](Cc3ccccc3)NC(=O)[C@H](C)NC(=O)C(C)(C)NC(=O)[C@H](Cc3cccc(C(=O)O)c3)NC(=O)[C@H](CC(=O)O)NC1=O)NC(=O)[C@H](CC(C)(C)C)NC(=O)[C@H](CC(=O)O)NC2=O (relative stereo)	< 4.70

Hey, just so you know, these numbers are from patent US20260207704A1.
